Reference for the values: paper PMC4054929

Assay: In vivo biodistribution and regional brain uptake in rats
Conditions: male SD rats, i.v., 5 min p.i.
observation type: Biodistribution, lung (%ID/gram)
Value expressed in %ID/gram; do not type the unit.

In [3]: df
Out[3]:
                                   molecule       observation_type  assay_value
0  Cn1cc(-c2ccncc2)c(-c2ccc(OCc3cc(O[11CH3])c4ccccc4n3)cc2)n1 [[^11C]2]  Biodistribution, lung        0.890
1  Cn1ncc(-c2ccncc2)c1-c1ccc(OCc2cc(O[11CH3])c3ccccc3n2)cc1 [[^11C]4]  Biodistribution, lung        0.643
2  Cn1cc(-c2ccncc2)c(-c2ccc(OCc3nc4ccccc4cc3O[11CH3])cc2)n1 [[^11C]1]  Biodistribution, lung        1.602

QUERY: I'd like to know its Biodistribution, lung. The molecule in question is Cn1cc(-c2ccncc2)c(-c2ccc(OCc3ccc4cc(O[11CH3])ccc4n3)cc2)n1 [[^11C]3]
RESULT: 0.744
